test: Clonogenic assay of human CD34-positive HSPCs from healthy donors, 10 days (LC50); assay type: cell-based; conditions: human, sample 18/03/2016 CD34
test-readout: CC50 at 10 days

> print(dat)
                                smiles.code   result
1  CCCCCCCCNC(=O)C(C#N)=Cc1cn(CCCN(C)C)c2ccccc12  7.09 µM

* * *

test: Clonogenic assay of human CD34-positive HSPCs from healthy donors, 10 days (LC50); assay type: cell-based; settings: human, normal human CD34-positive HSPCs, clonogenic assay 10 days, Mean ± SEM
test-readout: CC50 at 10 days (µM)

> print(dat)
                                   compound  recorded.number
1  CCCCCCCCNC(=O)C(C#N)=Cc1cn(CCCN(C)C)c2ccccc12 [Dynole 34-2]               23
